Entry source: patent US4061748A

Test system: Escherichia coli No. 37
Assay: Median protective dose against intraperitoneal infection in mice
Type: in vivo, Escherichia coli; male ICR-SLC strain mice
Conditions: sc; Escherichia coli No. 37, intraperitoneal infection; two subcutaneous treatments, 1 and 4 hours after infection; read-out: PD50
From the text: The relative activities of the compounds of the present invention, Compound (A) and Compound (B) against various intraperitoneal infections in mice evaluated by mean median protective doses (subcutaneously administered) are shown in Table 3. For each test, eight male ICR-SLC strain mice were used at each dose
Record form. Attribute: ED50. Fill in for each entry.

Look up ED50 for the entries below, preserving their order.
1. CC(=O)OCC1=C(C(=O)O)N2C(=O)C(NC(=O)[C@H](NC(=O)c3cnccc3O)c3ccccc3)C2SC1 (stereo partly drawn) [Compound (B), reference compound]
2. O=C(O)C1=C(CSc2cnn[nH]2)CSC2C(NC(=O)[C@H](NC(=O)c3cnc4cccnc4c3O)c3ccccc3)C(=O)N12 (stereo partly drawn) [Example 4]
3. Cc1nnc(SCC2=C(C(=O)O)N3C(=O)C(NC(=O)[C@H](NC(=O)c4cnc5cccnc5c4O)c4ccccc4)C3SC2)s1 (stereo partly drawn) [Example 2]

Reply text:
170 mg/kg
45 mg/kg
41 mg/kg

Hi! Can you tell me ED50 for each of these compounds?
1. CC(=O)OCC1=C(C(=O)O)N2C(=O)C(NC(=O)[C@H](NC(=O)c3cnc4ccccc4c3O)c3ccccc3)C2SC1 (stereo partly drawn) [Compound (A), reference compound]
2. Cn1nnnc1SCC1=C(C(=O)O)N2C(=O)C(NC(=O)[C@H](NC(=O)c3cnc4cccnc4c3O)c3ccccc3)C2SC1 (stereo partly drawn) [Example 3]

Reply text:
["> 200 mg/kg", "28 mg/kg"]

Measured ED50, CC(=O)OCC1=C(C(=O)O)N2C(=O)C(NC(=O)[C@H](NC(=O)c3cnc4cccnc4c3O)c3ccccc3)C2SC1 (stereo partly drawn) [Example 1] : 50 mg/kg
